The values you see were collected from patent US12258327B2.

Overview of recorded IC50 for various molecules
# Target desc: EGFR L858R/T790M/C797S (Homo sapiens, UniProt P00533, C797S/L858R/T790M)
# Sequence (P00533 25-1210 T790M/C797S/L858R): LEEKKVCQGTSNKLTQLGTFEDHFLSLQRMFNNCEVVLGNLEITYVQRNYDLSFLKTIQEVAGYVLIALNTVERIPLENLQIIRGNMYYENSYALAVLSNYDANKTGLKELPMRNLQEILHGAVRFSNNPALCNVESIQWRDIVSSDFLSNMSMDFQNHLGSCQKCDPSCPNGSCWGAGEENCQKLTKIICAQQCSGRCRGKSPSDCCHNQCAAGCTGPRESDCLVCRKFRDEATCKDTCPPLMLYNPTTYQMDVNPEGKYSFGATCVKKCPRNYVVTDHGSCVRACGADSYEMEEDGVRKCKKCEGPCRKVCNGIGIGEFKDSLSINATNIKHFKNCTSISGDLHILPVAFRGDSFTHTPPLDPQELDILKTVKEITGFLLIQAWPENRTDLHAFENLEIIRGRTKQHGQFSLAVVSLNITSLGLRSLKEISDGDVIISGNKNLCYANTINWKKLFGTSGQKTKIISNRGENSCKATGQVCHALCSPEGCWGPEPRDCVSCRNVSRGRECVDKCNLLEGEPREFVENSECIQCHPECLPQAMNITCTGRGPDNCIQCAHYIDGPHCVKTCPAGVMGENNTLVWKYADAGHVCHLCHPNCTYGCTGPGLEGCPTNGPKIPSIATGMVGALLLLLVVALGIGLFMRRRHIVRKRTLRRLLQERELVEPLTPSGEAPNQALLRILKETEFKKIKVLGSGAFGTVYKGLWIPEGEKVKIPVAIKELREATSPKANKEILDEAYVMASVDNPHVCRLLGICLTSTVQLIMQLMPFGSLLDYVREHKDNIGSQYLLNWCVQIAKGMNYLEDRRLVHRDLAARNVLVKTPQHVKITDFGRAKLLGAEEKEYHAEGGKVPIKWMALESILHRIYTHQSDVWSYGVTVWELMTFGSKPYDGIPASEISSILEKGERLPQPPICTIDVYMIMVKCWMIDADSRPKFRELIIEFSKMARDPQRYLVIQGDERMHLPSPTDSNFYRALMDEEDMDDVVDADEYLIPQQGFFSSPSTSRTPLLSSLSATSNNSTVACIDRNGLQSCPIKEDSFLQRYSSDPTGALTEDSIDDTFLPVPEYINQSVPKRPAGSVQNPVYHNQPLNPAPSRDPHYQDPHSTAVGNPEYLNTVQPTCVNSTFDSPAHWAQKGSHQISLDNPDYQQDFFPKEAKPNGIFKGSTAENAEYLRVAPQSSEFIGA
# Assay summary: Biochemical EGFR kinase assay (Lance Ultra TR-FRET), triple mutant L858R/T790M/C797S
# Run conditions: read-out: IC50 L858R/T790M/C797S (nM) 100 μM ATP; 100 μM ATP
# Protocol: Biochemical EGFR kinase assays were conducted using Lance Ultra time-resolved fluorescence resonance energy transfer (TR-FRET) technology from Perkin-Elmer. […] Each kinase reactions were incubated at room temperature for 1 hour and then stopped by the addition of 4 μL of stop solution (10 mM EDTA). […] After 60 minutes incubation at room temperature the LANCE signal was measured on an EnVision Multilabel Reader (Perkin-Elmer). […]
Quantity kind: IC50 (nM)

Chemical string: O=S(=O)(C1CC1)n1cc(-c2nccc(Nc3cc(N[C@H]4CC[C@@H](NCCF)CC4)c(-c4csc(C(F)(F)F)n4)cn3)n2)cn1
Endpoint value: 1.6
--
Chemical string: CS(=O)(=O)n1cc(-c2nccc(Nc3cc(N[C@H]4CC[C@@](C)(O)CC4)c(-c4ccn(C(F)F)n4)cn3)n2)cn1
Endpoint value: 4.9
--
Chemical string: O=S(=O)(C1CC1)n1cc(-c2nccc(Nc3cc(N[C@H]4CC[C@](O)(C(F)(F)F)CC4)c(-c4ccn(C(F)F)n4)cn3)n2)cn1
Endpoint value: 21.8
--
Chemical string: CC(C)n1ccc(-c2cnc(Nc3ccnc(-c4cnn(S(=O)(=O)C5CC5)c4)n3)cc2N[C@H]2CC[C@@H](O)CC2)n1
Endpoint value: 1.8
